measured-on: UniProt:Q9Y6L6
assay-comment: cell-based

[
  {
    "record-smiles": "CO[C@@H]1[C@H](O)[C@@H](CO)O[C@H]1n1c(Sc2ccc(Cl)cc2)nc2c(N)ncnc21",
    "measured-on": "UniProt:Q9Y6L6",
    "readout-units": "µM",
    "Ki": 10.4
  }
]

* * *

measured-on: OATP1B1 (Homo sapiens, UniProt Q9Y6L6)
Sequence (Q9Y6L6 whole entry): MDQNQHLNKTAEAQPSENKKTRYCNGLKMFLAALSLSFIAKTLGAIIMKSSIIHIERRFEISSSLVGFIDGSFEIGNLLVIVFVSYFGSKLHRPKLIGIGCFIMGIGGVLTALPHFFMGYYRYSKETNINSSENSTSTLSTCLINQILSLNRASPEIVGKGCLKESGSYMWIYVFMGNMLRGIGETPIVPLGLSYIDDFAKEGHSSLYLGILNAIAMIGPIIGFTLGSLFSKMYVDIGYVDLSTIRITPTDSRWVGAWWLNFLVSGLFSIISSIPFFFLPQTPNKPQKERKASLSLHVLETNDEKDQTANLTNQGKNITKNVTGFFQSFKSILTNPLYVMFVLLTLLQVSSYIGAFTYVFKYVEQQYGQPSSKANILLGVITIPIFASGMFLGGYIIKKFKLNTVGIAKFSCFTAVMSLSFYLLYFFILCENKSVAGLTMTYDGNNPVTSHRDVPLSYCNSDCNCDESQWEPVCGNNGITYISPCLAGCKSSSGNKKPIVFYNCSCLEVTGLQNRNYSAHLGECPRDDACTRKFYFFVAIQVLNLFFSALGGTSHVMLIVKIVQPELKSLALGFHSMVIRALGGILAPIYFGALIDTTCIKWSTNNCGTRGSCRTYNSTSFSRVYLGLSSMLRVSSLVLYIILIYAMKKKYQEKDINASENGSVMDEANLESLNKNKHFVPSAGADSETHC
pKi: −log10 of the molar value.
experimental-endpoint: pKi

[
  {
    "compound": "Nc1ncnc2c1nc(Sc1ccc(Cl)cc1)n2[C@@H]1O[C@@H]2COP(=O)([O-])O[C@H]2[C@H]1O.[Na+] [Analog 8-pCPT-cAMP]",
    "measured-on": "OATP1B1 (Homo sapiens, UniProt Q9Y6L6)",
    "measured-number": 4.36
  },
  {
    "compound": "O=P1(O)OCC2OC(n3c(Sc4ccc(Cl)cc4)nc4c(Nc5ccccc5)ncnc43)C(O)C2O1 (stereo not shown) [8-pCPT-6-Phe-cAMP]",
    "measured-on": "OATP1B1 (Homo sapiens, UniProt Q9Y6L6)",
    "measured-number": 5.68
  },
  {
    "compound": "Nc1nc2c(nc(Sc3ccc(Cl)cc3)n2[C@@H]2O[C@@H]3COP(=O)(O)O[C@H]3[C@H]2O)c(=O)[nH]1 [Analog 8-pCPT-cGMP]",
    "measured-on": "OATP1B1 (Homo sapiens, UniProt Q9Y6L6)",
    "measured-number": 4.06
  },
  {
    "compound": "Nc1ncnc2c1nc(Sc1ccc(Cl)cc1)n2C1CC2OP(=O)(O)OCC2O1 (stereo not shown) [Analog 8-pCPT-dcAMP]",
    "measured-on": "OATP1B1 (Homo sapiens, UniProt Q9Y6L6)",
    "measured-number": 4.13
  },
  {
    "compound": "CO[C@H]1C2OP(O)(=S)OC[C@H]2O[C@H]1n1c(Sc2ccc(Cl)cc2)nc2c(N)ncnc21 (single isomer, unassigned) [Sp-8-pCPT-2′-O-Me-cAMPS]",
    "measured-on": "OATP1B1 (Homo sapiens, UniProt Q9Y6L6)",
    "measured-number": 5.18
  },
  {
    "compound": "O=P1(O)OC[C@H]2O[C@@H](n3c(Sc4ccc(Cl)cc4)nc4c(Nc5ccccc5)ncnc43)C[C@@H]2O1 [8-pCPT-6-Phe-dcAMP]",
    "measured-on": "OATP1B1 (Homo sapiens, UniProt Q9Y6L6)",
    "measured-number": 5.56
  },
  {
    "compound": "CO[C@@H]1[C@@H]2OP(=O)(O)OC[C@H]2O[C@H]1n1c(Sc2ccc(Cl)cc2)nc2c(N)ncnc21 [8-pCPT-2′-O-Me-cAMP]",
    "measured-on": "OATP1B1 (Homo sapiens, UniProt Q9Y6L6)",
    "measured-number": 4.81
  }
]
